Molecular target: PPARγ (Homo sapiens)
Construct: expressed in transfected cells; host or cells: CHO-K1
Sequence (P37231 29-505): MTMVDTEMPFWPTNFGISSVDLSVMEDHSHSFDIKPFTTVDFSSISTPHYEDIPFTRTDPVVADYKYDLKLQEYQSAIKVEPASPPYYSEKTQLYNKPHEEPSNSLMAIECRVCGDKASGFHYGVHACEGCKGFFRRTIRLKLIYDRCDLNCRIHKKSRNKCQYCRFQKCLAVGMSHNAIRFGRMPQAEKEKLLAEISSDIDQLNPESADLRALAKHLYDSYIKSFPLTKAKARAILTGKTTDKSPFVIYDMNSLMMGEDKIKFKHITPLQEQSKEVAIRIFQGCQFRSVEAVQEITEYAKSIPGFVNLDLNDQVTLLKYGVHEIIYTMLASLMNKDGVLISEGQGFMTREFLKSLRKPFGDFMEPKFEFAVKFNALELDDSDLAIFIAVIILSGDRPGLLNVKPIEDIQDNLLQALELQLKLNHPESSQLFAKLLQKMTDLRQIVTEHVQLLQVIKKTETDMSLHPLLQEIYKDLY
Sequence (P19793 whole entry partner): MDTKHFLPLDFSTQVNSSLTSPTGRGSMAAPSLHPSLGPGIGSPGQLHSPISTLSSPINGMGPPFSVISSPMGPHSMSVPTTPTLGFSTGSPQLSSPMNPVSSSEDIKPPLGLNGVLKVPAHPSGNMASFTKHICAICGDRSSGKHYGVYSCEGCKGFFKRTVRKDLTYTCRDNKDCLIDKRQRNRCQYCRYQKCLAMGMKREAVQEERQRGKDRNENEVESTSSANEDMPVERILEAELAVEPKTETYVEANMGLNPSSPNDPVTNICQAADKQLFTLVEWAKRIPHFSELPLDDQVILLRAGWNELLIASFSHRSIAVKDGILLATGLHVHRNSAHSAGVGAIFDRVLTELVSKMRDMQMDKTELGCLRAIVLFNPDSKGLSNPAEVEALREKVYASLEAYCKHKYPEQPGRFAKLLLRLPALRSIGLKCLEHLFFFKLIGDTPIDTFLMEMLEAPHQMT
Assay: Evaluation of PPARγ activating action (luciferase reporter in PPARγ:RXRα:4ERPP/CHO-K1 cells)
Assay type: cell-based
Details: CHO-K1, 24 h; test compound 10^−6 M; luciferase activity relative to control compound X (1 μM) = 100%, non-administration group = 0%; read-out: PPARγ activating action (activation % (10^−6 M))
Experimental: PPARγ:RXRα:4ERPP/CHO-K1 cells obtained in the following Reference Example 5 were cultured in F12 medium [manufactured by INVITROGEN, USA] containing 10% fetal bovine serum [manufactured by MOREGATE, Australia], seeded in a 96-well half area white plate [manufactured by Corning Coster Corporation, USA] at the density of 5×10^3 cells/well and cultured in a CO2 gas incubator at 37° C. overnight. […]
quantity: activation at 1 µM

1) CCCc1nc(C)n(-c2ccc(OC(C)C)cc2)c(=O)c1Cc1ccc(-c2ccccc2-c2noc(O)n2)cc1
31.2%
2) CCCc1nc(CC)n(-c2ccc(OC3(CO)CCCC3)cc2)c(=O)c1Cc1ccc(-c2ccccc2-c2noc(=O)[nH]2)cc1
19.9%
3) CCCc1nc(C)n(-c2ccc(OC(C)C)cc2)c(=O)c1Cc1ccc(-c2ccccc2-c2noc(=O)[nH]2)cc1Cl
50.6%
4) CCCOc1ccc(-n2c(C)nc(CCC)c(Cc3ccc(-c4ccccc4-c4noc(=O)[nH]4)cc3)c2=O)cc1
30.5%
5) CCCc1nc(C)n(-c2ccc(OC(C)COC)cc2)c(=O)c1Cc1ccc(-c2ccccc2-c2noc(=O)[nH]2)cc1 (stereo not shown)
28.2%
6) CCCCc1nc(C)n(CC2CCCCC2)c(=O)c1Cc1ccc(-c2ccccc2-c2noc(=O)[nH]2)cc1
68.8%
7) CCCc1nc(C)n(-c2ccc(OC(C)CC)cc2)c(=O)c1Cc1ccc(-c2ccccc2-c2noc(=O)[nH]2)cc1 (stereo not shown)
37.1%

----------
Items are presented alongside their recorded IC50.
Target: human AT1 receptor (Homo sapiens)
Construct: expressed in transfected cells; host or cells: CHO-K1
Sequence (P30556 whole entry): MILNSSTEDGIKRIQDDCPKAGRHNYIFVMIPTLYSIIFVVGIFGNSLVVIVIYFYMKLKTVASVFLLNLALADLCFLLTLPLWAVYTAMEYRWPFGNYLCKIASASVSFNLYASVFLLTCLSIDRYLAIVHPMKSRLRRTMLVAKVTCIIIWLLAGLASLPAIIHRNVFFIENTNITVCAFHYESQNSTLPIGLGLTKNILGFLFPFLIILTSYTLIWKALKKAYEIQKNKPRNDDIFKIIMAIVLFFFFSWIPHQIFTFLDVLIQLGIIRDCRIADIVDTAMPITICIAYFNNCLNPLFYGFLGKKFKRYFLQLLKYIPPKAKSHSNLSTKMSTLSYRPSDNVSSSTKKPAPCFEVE
Assay: Binding assay using human AT1 receptor-expressing CHO-K1 cell membrane fraction ([125I]-angiotensin II)
Conditions: 22.5 pM [125I]-angiotensin II, 9 μg AT1 membrane, 1 hr room temperature; read-out: AT1 receptor binding inhibitory action (IC50 (nM))
Structures can show the parent of a compound that is named as a salt.
quantity: IC50 (nM)

1) CCCCc1nc(C)n(Cc2noc(-c3ccccc3)n2)c(=O)c1Cc1ccc(-c2ccccc2-c2noc(=O)[nH]2)cc1
2.1
2) CCCc1nc(CC)n(-c2ccc(OC3CCC(O)C3)cc2)c(=O)c1Cc1ccc(-c2ccccc2-c2noc(=O)[nH]2)cc1 (centres unmarked)
1.2
3) CCCc1nc(CC)c(-c2ccc(OC)cc2)c(=O)n1Cc1ccc(-c2ccccc2-c2noc(O)n2)cc1
1.8
4) CCCCc1nc(C(C)C)n(-c2ccc3c(c2)CCO3)c(=O)c1Cc1ccc(-c2ccccc2-c2noc(=O)[nH]2)cc1
1.8
5) CCCc1nc(C)n(-c2ccc(OC3CC3)cc2)c(=O)c1Cc1ccc(-c2ccccc2-c2noc(=O)[nH]2)cc1
1.7
6) CCCc1nc(C)c(Oc2ccc(OC)cc2)c(=O)n1Cc1ccc(-c2ccccc2-c2noc(O)n2)cc1 [Example 476, potassium salt]
2.1
7) CCCc1nc(C)n(-c2ccc3c(c2)C=CC(C)(C)O3)c(=O)c1Cc1ccc(-c2ccccc2-c2noc(=O)[nH]2)cc1
1.7
8) CCCc1nc(C)n(-c2ccc(OC(C)COC)cc2)c(=O)c1Cc1ccc(-c2ccccc2-c2noc(=O)[nH]2)cc1 (centres unmarked)
1.8
9) CCCc1nc(CC)n(-c2ccc(OC3CCC[C@H]3O)cc2)c(=O)c1Cc1ccc(-c2ccccc2-c2noc(=O)[nH]2)cc1 (some centres unmarked)
1.2
10) CCCc1nc(C)n(-c2ccc3c(c2)CC(C)(C)O3)c(=O)c1Cc1ccc(-c2ccccc2-c2noc(=O)[nH]2)cc1Cl
2.1
11) CCCc1nc(C)n(-c2ccc(OC(C)C)cc2)c(=O)c1Cc1ccc(-c2ccccc2-c2noc(=O)[nH]2)c(OC)c1
2.8
12) CCCc1nc(CC)n(-c2ccc(OC3CCOCC3)cc2)c(=O)c1Cc1ccc(-c2ccccc2-c2noc(=O)[nH]2)cc1
1.5
13) CCCc1nc(CC)c(Oc2ccc3c(c2)OCO3)c(=O)n1Cc1ccc(-c2ccccc2-c2noc(O)n2)cc1
2
14) CCCc1nc(CC)c(-c2ccc(OC(C)C)nc2)c(=O)n1Cc1ccc(-c2ccccc2-c2noc(O)n2)cc1F
2.5
